Data credit: paper PMC8022998

- experimental.system: TSPO (translocator protein (18 kDa)) (Oryctolagus cuniculus, UniProt G1SMF7)
- Sequence (G1SMF7 229-397): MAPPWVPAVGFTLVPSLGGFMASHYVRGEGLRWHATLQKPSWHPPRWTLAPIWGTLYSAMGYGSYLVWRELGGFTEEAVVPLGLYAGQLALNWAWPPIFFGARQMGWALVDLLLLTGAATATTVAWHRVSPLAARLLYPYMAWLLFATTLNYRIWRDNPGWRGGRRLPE
- method.description: [3H]-PK11195 radioligand displacement, size exclusion desalting plates
- setup.conditions: 1.2 nM [3H]-PK11195, 50 mM Tris-HCl pH 7.4, 30 min, room temperature; isolated mitochondria
measure.name: IC50
Form entry: enter the amount, then its unit.

CCN(CC)C(=O)Cc1c(-c2ccc(OCCn3cc(CO)nn3)cc2)nn2c(C)cc(C)nc12 [DPA-triazole] = 100 nM

As a next step, examine the compound that follows.
The compound CCC(C)N(C)C(=O)c1cc2ccccc2c(-c2ccccc2Cl)n1 (centres unmarked) [PK11195] showed IC50 equal to 5 nM
